Test system: MCF7 breast
Assay: NCI tumour cell line growth inhibition, 48 h
Entries and their TGI
Record the value in µM, omitting the unit from your answer.

{"columns": ["Molecule", "Assay endpoint", "Test result"],
 "data": [
  ["CC[C@H](Nc1nc(N)nc(C2CC2)c1C#N)c1nc2cccc(NCc3ccc(C(=O)NO)cc3)c2c(=O)n1-c1ccccc1", "TGI", 8.28]
]}

Lab note: next molecule to report on.
For the molecule CC12CC=CCC1CCC1C2CCC2(C)C(c3ccc(=O)oc3)CCC12O (stereo not given) , what TGI is on record? 0.961

* * *

Tested on: RPMI-8226 leukemia
Assay: NCI tumour cell line growth inhibition, 48 h; in the data active means GI50 below about 0.43 µM; inactive means the rest
Thanks in advance; please answer with one of these: t for active, f for inactive

Examples with answers:
{"columns": ["Query smiles", "Category label"],
 "data": [
  ["N=C(N)c1ccc(-c2ccc(-c3cc(Cl)cc(Cl)c3)o2)o1", "f"],
  ["CCCCCCNC(=O)Oc1ccc(/C(=C(/C)Cc2ccc(OC)cc2)c2ccc(OCCN(C)C)cc2)cc1", "f"],
  ["COc1ccc([C@@H](O)c2cc(-c3ncnc4cc(N5CCOCC5)ccc34)c(F)cc2Cl)nn1", "f"],
  ["Clc1ccc2c(c1)C(N1CCNCC1)=Nc1ccccc1O2", "f"],
  ["CCC[CH2][Sn]1([CH2]CCC)[O]C(=O)c2ccc(N)cc2[O]1", "t"],
  ["CCOC(=O)c1c2c(n(Cc3ccccc3)c1C)-c1nc(Cc3ccccc3)[nH]c1C(=O)C2=O", "f"],
  ["CC[C@H](Nc1nc(N)nc(C2CC2)c1C#N)c1nc2cccc(NCc3ccc(C(=O)NO)cc3)c2c(=O)n1-c1ccccc1", "f"],
  ["CNCCNc1nc2ccccc2c2c(=O)c3cc(F)ccc3sc12", "f"],
  ["Cc1cc2nc(-c3c(N)ncc(C#N)c3-c3ccc(Cl)cc3)[nH]c2cc1C", "f"],
  ["COc1cc(/C=C2\\CN(C(=O)CCN3CCC(=NO)CC3)C/C(=C\\c3cc(OC)c(OC)c(OC)c3)C2=O)cc(OC)c1OC", "t"]
]}

Now look at this one.
Outcome logged for `CCN(CC)CCOc1c(OC)c(Br)cc2c(C)c(C(=O)OC)oc12` in this assay: t

* * *

System: SF-295 CNS
Experiment: NCI tumour cell line growth inhibition, 48 h; in the data active = GI50 below about 0.43 µM; inactive = the rest
Reply using exactly one outcome from active, inactive

{"columns": ["Compound", "Experimental system", "Category label"],
 "data": [
  ["CCCCNC(=O)Oc1ccc(/C(=C(/CC)Cc2ccccc2)c2ccc(OCCN3CCCCCC3)cc2)cc1", "SF-295 CNS", "inactive"],
  ["CCOC(=O)c1c2c(n(Cc3ccccc3)c1C)-c1nc(Cc3ccccc3)[nH]c1C(=O)C2=O", "SF-295 CNS", "inactive"],
  ["CC[C@@]12C=CCN3CC[C@]4(c5cc(NC(=O)COc6cc(OCC(=O)Nc7cc8c(cc7OC)N(C)[C@H]7[C@@](O)(C(=O)OC)[C@H](OC(C)=O)[C@]9(CC)C=CCN%10CC[C@]87[C@@H]%109)cc7oc(-c8ccccc8)cc(=O)c67)c(OC)cc5N(C)[C@@H]4[C@](O)(C(=O)OC)[C@H]1OC(C)=O)[C@H]32", "SF-295 CNS", "inactive"]
]}

Hi, do you know how `CCCCN(CCCC)CCc1c(C)cc(C)c(CCN(CCCC)CCCC)c1O` came out in this test? inactive
